Target: VEGF165 (human, UniProt P15692-4 27-191)
Sequence (P15692 other isoform, or with tags, fused parts or gaps limits assumed): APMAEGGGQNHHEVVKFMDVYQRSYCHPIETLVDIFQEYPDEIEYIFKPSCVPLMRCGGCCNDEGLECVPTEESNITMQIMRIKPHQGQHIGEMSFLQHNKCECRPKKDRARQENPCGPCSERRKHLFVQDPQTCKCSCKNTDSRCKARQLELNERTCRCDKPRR
Assay: cell-based or functional assay
Reported IC50, HUVEC Survival values follow for various binders
Numbers only; they are read as mg/L.

mvsFlt 300 kDa HCR (multivalent sFlt-hyaluronic acid conjugate, high conjugation ratio) (other, UniProt P17948 27-328, looked up, thiolated with 2-iminothiolane and linked through EMCH maleimide to 300 kDa hyaluronic acid, domain: first 3 Ig-like extracellular domains; Protein-polymer conjugate; 30:1 sFlt:HyA feed ratio; final sFlt:HyA 15.4 by SEC-MALS; not shown: tag implied by Ni-NTA purification, not described) SKLKDPELSLKGTQHIMQAGQTLHLQCRGEAAHKWSLPEMVSKESERLSITKSACGRNGKQFCSTLTLNTAQANHTGFYSCKYLAVPTSKKKETESAIYIFISDTGRPFVEMYSEIPEIIHMTEGRELVIPCRVTSPNITVTLKKFPLDTLIPDGKRIIWDSRKGFIISNATYKEIGLLTCEATVNGHLYKTNYLTHRQTNTIIDVQISTPRPVKLLRGHTLVLNCTATTPLNTRVQMTWSYPDEKNKRASVRRRIDQSNSHANIFYSVLTIDKMQNKDKGLYTCRVRSGPSFKSVNTSVHI: 0.0444

Dear colleague, I am looking for the recorded IC50, HUVEC Survival of the following binder: mvsFlt 650 kDa LCR (multivalent sFlt-hyaluronic acid conjugate, low conjugation ratio) (other, UniProt P17948 27-328, looked up, thiolated with 2-iminothiolane and linked through EMCH maleimide to 650 kDa hyaluronic acid, domain: first 3 Ig-like extracellular domains; Protein-polymer conjugate; 10:1 sFlt:HyA feed ratio; final sFlt:HyA 5.3 by SEC-MALS; also called 650 kDa LCR mvsFlt; not shown: tag implied by Ni-NTA purification, not described) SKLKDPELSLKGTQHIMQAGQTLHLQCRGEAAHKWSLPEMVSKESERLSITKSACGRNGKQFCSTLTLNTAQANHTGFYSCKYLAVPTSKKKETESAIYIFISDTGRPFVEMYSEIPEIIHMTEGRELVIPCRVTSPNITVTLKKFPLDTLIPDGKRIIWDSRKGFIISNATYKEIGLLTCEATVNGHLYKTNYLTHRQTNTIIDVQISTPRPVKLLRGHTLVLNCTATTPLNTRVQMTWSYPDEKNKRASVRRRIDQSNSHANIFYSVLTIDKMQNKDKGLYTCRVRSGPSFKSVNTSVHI
0.0417
